- SYSTEM TESTED: Human Enterokinase (Homo sapiens, UniProt P98073)
- Sequence (P98073 whole entry): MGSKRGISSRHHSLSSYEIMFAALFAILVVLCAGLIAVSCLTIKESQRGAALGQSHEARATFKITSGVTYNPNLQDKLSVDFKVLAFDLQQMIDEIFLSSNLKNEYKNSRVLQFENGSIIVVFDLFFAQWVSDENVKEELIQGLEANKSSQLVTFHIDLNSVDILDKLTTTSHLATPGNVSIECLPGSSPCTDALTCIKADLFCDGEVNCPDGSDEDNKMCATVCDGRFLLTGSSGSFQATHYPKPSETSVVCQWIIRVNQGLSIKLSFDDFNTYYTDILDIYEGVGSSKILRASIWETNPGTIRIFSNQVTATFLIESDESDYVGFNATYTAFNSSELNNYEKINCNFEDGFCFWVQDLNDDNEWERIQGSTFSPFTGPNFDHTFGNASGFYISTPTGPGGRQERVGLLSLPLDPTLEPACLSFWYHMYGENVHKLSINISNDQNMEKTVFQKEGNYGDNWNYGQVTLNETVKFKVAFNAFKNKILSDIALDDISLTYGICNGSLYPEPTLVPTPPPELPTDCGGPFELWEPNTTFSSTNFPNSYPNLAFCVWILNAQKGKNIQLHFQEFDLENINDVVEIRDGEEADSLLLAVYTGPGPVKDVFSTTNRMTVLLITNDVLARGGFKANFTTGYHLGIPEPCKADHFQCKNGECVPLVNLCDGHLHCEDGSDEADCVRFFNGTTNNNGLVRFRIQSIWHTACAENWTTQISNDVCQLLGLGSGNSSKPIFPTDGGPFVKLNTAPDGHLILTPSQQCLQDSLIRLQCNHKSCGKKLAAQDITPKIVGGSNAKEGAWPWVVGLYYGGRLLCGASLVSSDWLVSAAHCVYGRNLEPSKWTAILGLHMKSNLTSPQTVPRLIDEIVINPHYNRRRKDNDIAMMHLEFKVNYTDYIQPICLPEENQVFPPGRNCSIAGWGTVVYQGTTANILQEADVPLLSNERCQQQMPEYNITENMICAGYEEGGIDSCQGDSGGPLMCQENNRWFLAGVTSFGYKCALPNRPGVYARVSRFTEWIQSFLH
MEASURED PARAMETER: Ki (µM)
Reply numerically in µM, unit not repeated.

Q: Entry under review: CCOC(=O)N1CCN(C(=O)[C@H](Cc2cccc(C(=N)N)c2)NS(=O)(=O)c2c(C(C)C)cc(C(C)C)cc2C(C)C)CC1 [WX-UK1] . Reported Ki?
Result: 0.71

###

- SYSTEM TESTED: UniProt:O15393
- Sequence (O15393 whole entry): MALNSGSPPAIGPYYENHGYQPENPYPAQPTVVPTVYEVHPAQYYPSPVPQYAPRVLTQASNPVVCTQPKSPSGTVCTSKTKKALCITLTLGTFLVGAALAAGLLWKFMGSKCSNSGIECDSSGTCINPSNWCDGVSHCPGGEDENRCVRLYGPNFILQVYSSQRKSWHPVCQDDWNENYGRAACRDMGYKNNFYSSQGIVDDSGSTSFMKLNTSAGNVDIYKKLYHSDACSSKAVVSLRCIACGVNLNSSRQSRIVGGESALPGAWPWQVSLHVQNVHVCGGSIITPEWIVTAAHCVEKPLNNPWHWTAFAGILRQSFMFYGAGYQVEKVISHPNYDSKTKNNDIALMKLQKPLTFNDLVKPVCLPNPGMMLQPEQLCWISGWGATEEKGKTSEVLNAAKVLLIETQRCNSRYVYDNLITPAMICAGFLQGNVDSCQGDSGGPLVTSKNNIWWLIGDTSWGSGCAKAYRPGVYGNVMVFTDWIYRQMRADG
MEASURED PARAMETER: pKi
By convention, pKi is the negative base-10 log of a molar concentration.

Q: I'm curious: which pKi was measured for CCOC(=O)N1CCN(C(=O)[C@H](Cc2cccc(C(=N)N)c2)NS(=O)(=O)c2c(C(C)C)cc(C(C)C)cc2C(C)C)CC1 [WX-UK1] tested on UniProt:O15393?
Result: 5.54

###

- SYSTEM TESTED: Bovine Cationic Trypsin-1 (Bos taurus)
- Sequence (P00760 24-246): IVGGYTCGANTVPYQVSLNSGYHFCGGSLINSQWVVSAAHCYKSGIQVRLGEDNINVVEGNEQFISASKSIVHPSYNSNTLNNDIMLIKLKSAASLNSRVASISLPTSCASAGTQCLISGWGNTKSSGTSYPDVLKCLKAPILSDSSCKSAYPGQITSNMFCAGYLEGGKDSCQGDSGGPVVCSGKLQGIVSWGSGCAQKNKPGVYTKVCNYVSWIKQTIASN
MEASURED PARAMETER: Ki (nM)
Reply numerically in nM, unit not repeated.

Q: Entry under review: CCOC(=O)N1CCN(C(=O)[C@H](Cc2cccc(C(=N)N)c2)NS(=O)(=O)c2c(C(C)C)cc(C(C)C)cc2C(C)C)CC1 . Reported Ki?
Result: 500

###

- SYSTEM TESTED: Human FIXa (Homo sapiens)
- Sequence (P00740 227-461 limits assumed): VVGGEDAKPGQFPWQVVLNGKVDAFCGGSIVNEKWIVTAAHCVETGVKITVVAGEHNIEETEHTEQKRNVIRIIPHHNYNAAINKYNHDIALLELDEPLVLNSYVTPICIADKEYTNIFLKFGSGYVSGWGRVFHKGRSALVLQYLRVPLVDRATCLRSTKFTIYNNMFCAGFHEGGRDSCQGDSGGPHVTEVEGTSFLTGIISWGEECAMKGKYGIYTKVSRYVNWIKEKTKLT
- Sequence (P00740 47-191 partner limits assumed): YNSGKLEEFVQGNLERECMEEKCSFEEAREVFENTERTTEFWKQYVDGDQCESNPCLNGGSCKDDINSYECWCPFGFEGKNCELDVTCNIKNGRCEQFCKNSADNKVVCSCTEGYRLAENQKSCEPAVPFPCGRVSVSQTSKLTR
MEASURED PARAMETER: Ki
In your response, the unit should come after the numeric value.

Q: Entry under review: CCOC(=O)N1CCN(C(=O)[C@H](Cc2cccc(C(=N)N)c2)NS(=O)(=O)c2c(C(C)C)cc(C(C)C)cc2C(C)C)CC1 [WX-UK1] . Reported Ki?
Result: 2500 nM

###

- SYSTEM TESTED: Human HAT (Homo sapiens)
- Sequence (O60235 1-418): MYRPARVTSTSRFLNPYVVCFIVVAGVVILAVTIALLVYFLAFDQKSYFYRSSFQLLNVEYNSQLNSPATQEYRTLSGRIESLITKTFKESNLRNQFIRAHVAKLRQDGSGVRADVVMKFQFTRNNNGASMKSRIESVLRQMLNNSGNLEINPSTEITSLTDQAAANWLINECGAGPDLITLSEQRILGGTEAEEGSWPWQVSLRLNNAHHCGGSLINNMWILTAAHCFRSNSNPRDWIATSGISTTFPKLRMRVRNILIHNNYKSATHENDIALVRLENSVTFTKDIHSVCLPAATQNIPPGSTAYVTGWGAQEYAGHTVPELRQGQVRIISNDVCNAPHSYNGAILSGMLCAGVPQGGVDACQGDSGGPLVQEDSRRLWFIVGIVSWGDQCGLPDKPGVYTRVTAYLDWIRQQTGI
MEASURED PARAMETER: pKi
By convention, pKi is the negative base-10 log of a molar concentration.

Q: Entry under review: CCOC(=O)N1CCN(C(=O)[C@H](Cc2cccc(C(=N)N)c2)NS(=O)(=O)c2c(C(C)C)cc(C(C)C)cc2C(C)C)CC1 [WX-UK1] . Reported pKi?
Result: 5.82

###

- SYSTEM TESTED: Human HGFA (Homo sapiens, UniProt Q04756)
- Sequence (Q04756 373-655): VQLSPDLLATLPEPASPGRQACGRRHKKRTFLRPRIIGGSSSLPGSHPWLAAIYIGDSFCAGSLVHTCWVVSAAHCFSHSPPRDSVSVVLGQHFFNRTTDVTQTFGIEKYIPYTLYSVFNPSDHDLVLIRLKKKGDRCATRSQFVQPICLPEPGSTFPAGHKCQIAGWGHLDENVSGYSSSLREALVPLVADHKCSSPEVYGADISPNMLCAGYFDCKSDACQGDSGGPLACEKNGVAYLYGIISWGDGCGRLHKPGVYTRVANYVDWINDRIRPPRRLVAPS
- ASSAY TEXT: Ki determination, chromogenic substrate cleavage
- Type: biochemical
- RECORDED CONDITIONS: read-out: Ki Mean ± SD (n)
MEASURED PARAMETER: Ki (µM)
Reply numerically in µM, unit not repeated.

Q: I'm curious: which Ki was measured for CCOC(=O)N1CCN(C(=O)[C@H](Cc2cccc(C(=N)N)c2)NS(=O)(=O)c2c(C(C)C)cc(C(C)C)cc2C(C)C)CC1 tested on Human HGFA (Homo sapiens, UniProt Q04756)?
Result: 28

###

- SYSTEM TESTED: UniProtKB Q16651
- Sequence (Q16651 33-343): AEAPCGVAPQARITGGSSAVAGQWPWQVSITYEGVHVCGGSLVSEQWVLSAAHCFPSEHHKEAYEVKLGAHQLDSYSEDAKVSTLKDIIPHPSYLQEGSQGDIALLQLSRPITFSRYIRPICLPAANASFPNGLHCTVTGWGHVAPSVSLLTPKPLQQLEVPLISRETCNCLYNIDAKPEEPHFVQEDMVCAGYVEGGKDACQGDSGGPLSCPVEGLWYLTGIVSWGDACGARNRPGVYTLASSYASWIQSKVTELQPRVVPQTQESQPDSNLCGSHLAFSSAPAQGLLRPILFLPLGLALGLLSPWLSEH
MEASURED PARAMETER: IC50

Q: I'm curious: which IC50 was measured for CCOC(=O)N1CCN(C(=O)[C@H](Cc2cccc(C(=N)N)c2)NS(=O)(=O)c2c(C(C)C)cc(C(C)C)cc2C(C)C)CC1 [WX-UK1] tested on UniProtKB Q16651?
Result: > 250 µM

###

- SYSTEM TESTED: Human Kallikrein-11 (Homo sapiens)
- Sequence (Q9UBX7 54-282): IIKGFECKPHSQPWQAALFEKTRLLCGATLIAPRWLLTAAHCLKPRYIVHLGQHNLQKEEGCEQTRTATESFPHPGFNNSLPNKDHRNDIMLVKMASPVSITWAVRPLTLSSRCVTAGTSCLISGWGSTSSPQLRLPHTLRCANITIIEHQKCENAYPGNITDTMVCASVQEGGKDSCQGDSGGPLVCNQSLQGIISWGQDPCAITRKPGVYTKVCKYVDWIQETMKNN
pKi: −log10 of the molar value.
MEASURED PARAMETER: pKi

Q: Entry under review: CCOC(=O)N1CCN(C(=O)[C@H](Cc2cccc(C(=N)N)c2)NS(=O)(=O)c2c(C(C)C)cc(C(C)C)cc2C(C)C)CC1 . Reported pKi?
Result: < 3.60

###

- SYSTEM TESTED: Human Fxa (Homo sapiens, UniProt P00742)
- Sequence (P00742 235-488 limits assumed): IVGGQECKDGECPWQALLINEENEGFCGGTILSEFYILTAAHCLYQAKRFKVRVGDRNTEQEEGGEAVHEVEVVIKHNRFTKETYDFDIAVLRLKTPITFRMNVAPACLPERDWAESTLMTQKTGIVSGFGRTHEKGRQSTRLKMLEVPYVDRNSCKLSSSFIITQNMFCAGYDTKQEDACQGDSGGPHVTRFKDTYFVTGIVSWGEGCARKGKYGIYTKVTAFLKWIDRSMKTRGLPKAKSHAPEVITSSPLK
- Sequence (P00742 41-179 partner limits assumed): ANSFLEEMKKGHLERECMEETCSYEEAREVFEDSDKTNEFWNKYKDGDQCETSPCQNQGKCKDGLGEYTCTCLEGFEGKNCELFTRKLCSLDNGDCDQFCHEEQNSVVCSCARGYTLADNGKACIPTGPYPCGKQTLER
MEASURED PARAMETER: Ki (µM)
Reply numerically in µM, unit not repeated.

Q: I'm curious: which Ki was measured for CCOC(=O)N1CCN(C(=O)[C@H](Cc2cccc(C(=N)N)c2)NS(=O)(=O)c2c(C(C)C)cc(C(C)C)cc2C(C)C)CC1 tested on Human Fxa (Homo sapiens, UniProt P00742)?
Result: 2.6

###

- SYSTEM TESTED: Human FXIa (Homo sapiens, UniProt P03951)
- Sequence (P03951 388-625 limits assumed): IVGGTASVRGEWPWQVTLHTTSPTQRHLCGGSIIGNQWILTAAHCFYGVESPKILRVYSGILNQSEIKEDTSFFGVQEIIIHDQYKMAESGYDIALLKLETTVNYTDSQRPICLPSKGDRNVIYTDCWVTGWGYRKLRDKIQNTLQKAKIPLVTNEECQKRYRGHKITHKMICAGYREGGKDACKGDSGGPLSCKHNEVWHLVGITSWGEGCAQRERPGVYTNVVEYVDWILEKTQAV
- Sequence (P03951 19-387 partner limits assumed): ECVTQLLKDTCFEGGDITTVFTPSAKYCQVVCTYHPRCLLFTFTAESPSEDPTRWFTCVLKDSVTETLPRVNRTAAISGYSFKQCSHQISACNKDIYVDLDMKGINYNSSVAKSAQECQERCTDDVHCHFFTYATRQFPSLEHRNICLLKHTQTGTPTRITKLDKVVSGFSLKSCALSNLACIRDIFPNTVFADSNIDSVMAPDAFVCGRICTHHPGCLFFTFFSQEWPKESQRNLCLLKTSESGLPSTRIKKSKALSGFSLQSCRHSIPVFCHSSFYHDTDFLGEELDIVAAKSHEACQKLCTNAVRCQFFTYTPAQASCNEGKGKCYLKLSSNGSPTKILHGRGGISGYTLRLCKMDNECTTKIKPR
MEASURED PARAMETER: pKi
By convention, pKi is the negative base-10 log of a molar concentration.

Q: I'm curious: which pKi was measured for CCOC(=O)N1CCN(C(=O)[C@H](Cc2cccc(C(=N)N)c2)NS(=O)(=O)c2c(C(C)C)cc(C(C)C)cc2C(C)C)CC1 tested on Human FXIa (Homo sapiens, UniProt P03951)?
Result: 6.05

###

- SYSTEM TESTED: UniProt P00750
- Sequence (P00750 311-562 limits assumed): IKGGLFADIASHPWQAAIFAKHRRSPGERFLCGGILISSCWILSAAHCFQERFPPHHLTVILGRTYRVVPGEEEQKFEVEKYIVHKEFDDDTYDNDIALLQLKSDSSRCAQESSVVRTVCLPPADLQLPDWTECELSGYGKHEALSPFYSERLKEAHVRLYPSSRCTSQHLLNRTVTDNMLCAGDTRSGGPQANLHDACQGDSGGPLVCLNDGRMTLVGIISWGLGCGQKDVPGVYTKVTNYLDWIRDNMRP
- Sequence (P00750 36-310 partner limits assumed): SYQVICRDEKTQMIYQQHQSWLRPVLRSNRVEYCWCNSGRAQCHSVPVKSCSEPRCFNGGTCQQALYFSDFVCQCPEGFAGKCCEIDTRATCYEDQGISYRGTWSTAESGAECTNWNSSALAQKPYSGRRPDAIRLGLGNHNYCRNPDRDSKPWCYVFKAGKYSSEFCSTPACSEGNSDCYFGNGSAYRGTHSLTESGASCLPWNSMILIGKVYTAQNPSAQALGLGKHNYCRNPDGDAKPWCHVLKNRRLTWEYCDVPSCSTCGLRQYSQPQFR
MEASURED PARAMETER: pKi
By convention, pKi is the negative base-10 log of a molar concentration.

Q: I'm curious: which pKi was measured for CCOC(=O)N1CCN(C(=O)[C@H](Cc2cccc(C(=N)N)c2)NS(=O)(=O)c2c(C(C)C)cc(C(C)C)cc2C(C)C)CC1 tested on UniProt P00750?
Result: 5.85

###

- SYSTEM TESTED: Human Trypsin-3 (Homo sapiens)
- Sequence (P35030 whole entry): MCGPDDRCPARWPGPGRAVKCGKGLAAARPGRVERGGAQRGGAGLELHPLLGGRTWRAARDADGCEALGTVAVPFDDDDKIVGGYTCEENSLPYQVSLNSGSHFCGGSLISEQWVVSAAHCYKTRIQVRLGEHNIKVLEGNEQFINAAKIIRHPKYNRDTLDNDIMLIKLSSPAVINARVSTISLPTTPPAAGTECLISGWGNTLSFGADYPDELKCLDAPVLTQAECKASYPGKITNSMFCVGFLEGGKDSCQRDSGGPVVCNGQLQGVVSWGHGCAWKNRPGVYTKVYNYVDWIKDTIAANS
MEASURED PARAMETER: pKi
By convention, pKi is the negative base-10 log of a molar concentration.

Q: Entry under review: CCOC(=O)N1CCN(C(=O)[C@H](Cc2cccc(C(=N)N)c2)NS(=O)(=O)c2c(C(C)C)cc(C(C)C)cc2C(C)C)CC1 [WX-UK1] . Reported pKi?
Result: 7.72

###

- SYSTEM TESTED: UniProt:P29598
- Sequence (P29598 20-432): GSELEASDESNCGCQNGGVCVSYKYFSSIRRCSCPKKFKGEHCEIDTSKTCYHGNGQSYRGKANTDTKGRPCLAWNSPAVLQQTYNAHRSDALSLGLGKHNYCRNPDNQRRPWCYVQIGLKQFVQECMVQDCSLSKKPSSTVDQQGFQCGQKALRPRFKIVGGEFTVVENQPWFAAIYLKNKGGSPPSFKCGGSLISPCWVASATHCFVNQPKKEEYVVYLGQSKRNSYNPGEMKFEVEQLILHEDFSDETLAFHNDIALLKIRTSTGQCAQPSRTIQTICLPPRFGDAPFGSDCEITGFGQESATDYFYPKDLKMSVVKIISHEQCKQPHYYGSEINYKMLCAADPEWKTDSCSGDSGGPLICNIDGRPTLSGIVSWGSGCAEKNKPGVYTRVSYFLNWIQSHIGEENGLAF
- ASSAY TEXT: Ki determination, chromogenic substrate cleavage
- Format: biochemical
- RECORDED CONDITIONS: read-out: Ki Mean ± SD (n)
MEASURED PARAMETER: pKi
By convention, pKi is the negative base-10 log of a molar concentration.

Q: I'm curious: which pKi was measured for CCOC(=O)N1CCN(C(=O)[C@H](Cc2cccc(C(=N)N)c2)NS(=O)(=O)c2c(C(C)C)cc(C(C)C)cc2C(C)C)CC1 tested on UniProt:P29598?
Result: 6.40

###

- SYSTEM TESTED: Human uPA (Homo sapiens)
MEASURED PARAMETER: pKi
By convention, pKi is the negative base-10 log of a molar concentration.

Q: I'm curious: which pKi was measured for CCOC(=O)N1CCN(C(=O)[C@H](Cc2cccc(C(=N)N)c2)NS(=O)(=O)c2c(C(C)C)cc(C(C)C)cc2C(C)C)CC1 [WX-UK1] tested on Human uPA (Homo sapiens)?
Result: 6.05

###

- SYSTEM TESTED: Human uPA (Q192A in medium) (Homo sapiens, UniProt P00749, Q373A)
- ASSAY TEXT: Ki determination, chromogenic substrate cleavage
- RECORDED CONDITIONS: read-out: Ki Mean ± SD (n)
MEASURED PARAMETER: pKi
By convention, pKi is the negative base-10 log of a molar concentration.

Q: Entry under review: CCOC(=O)N1CCN(C(=O)[C@H](Cc2cccc(C(=N)N)c2)NS(=O)(=O)c2c(C(C)C)cc(C(C)C)cc2C(C)C)CC1 . Reported pKi?
Result: 5.54
